tested-on: D-3-phosphoglycerate dehydrogenase (Homo sapiens)
metric: IC50 (µM)
The reply should be a number in µM, with the unit left off.

These recorded examples may help you get a feel for the data.
What value of IC50 has been recorded for this entry: Cc1cc(C)nc(NC(=S)N2CCCN(Cc3ccc(C(F)(F)F)cc3)CC2)c1
7.3

What value of IC50 has been recorded for this entry: Cc1ccnc(NC(=S)N2CCN(c3cccc(C(F)(F)F)c3)CC2)n1
37

Here is another compound to look at.
What value of IC50 has been recorded for this entry: Cc1cc(C)nc(NC(=S)N2CCCC(Nc3ccc(C(F)(F)F)cc3)C2)c1 (stereo not drawn)
5.7

* * *

tested-on: D-3-phosphoglycerate dehydrogenase (Homo sapiens) (UniProt O43175)
protocol: Inhibition of N-terminal His6-tagged human liver PHGDH expressed in Escherichia coli Rosetta (DE3)pLysS at 57 uM using 3-phosphoglycerate as substrate after 20 mins in presence of NAD+ by resazurin fluorescence based PSAT1/diaphorase/PSPH coupled enzyme assay
Label 0 (no) if Imax falls below 20%; label 1 (yes) in every other case.

These solved cases illustrate the format of a correct answer.
Form field: Imax at least 20%? Entry: Cc1ccnc(CC(=S)N2CCN(c3cccc(C(F)(F)F)c3)CC2)c1
1 (yes)

Form field: Imax at least 20%? Entry: Cc1ccnc(NC(=O)N2CCN(c3cccc(C(F)(F)F)c3)CC2)c1
0 (no)

Form field: Imax at least 20%? Entry: Cc1cc(C)nc(NC(=S)N2CCN(Cc3cccnc3)CC2)c1
1 (yes)

Form field: Imax at least 20%? Entry: Cc1ccnc(NC(=N)N2CCN(c3cccc(C(F)(F)F)c3)CC2)c1
0 (no)

Okay, next one:
Form field: Imax at least 20%? Entry: Cc1ccnc(C(=S)N2CCN(c3cccc(C(F)(F)F)c3)CC2)c1
0 (no)

* * *

tested-on: D-3-phosphoglycerate dehydrogenase (Homo sapiens) (UniProt O43175)
Sequence (whole entry): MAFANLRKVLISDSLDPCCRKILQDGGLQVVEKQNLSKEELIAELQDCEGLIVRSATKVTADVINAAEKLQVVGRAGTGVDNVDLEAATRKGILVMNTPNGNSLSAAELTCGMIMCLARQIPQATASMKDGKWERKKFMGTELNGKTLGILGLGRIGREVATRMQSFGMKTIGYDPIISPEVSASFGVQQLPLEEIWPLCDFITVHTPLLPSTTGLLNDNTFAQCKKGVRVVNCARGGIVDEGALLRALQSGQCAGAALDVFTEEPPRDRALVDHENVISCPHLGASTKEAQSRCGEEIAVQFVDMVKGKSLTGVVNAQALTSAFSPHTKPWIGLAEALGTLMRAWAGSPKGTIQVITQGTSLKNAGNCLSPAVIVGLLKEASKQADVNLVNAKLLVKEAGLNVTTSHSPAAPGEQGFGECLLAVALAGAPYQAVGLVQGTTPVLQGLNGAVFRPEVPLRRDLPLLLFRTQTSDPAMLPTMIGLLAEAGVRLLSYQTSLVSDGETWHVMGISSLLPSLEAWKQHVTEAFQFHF
protocol: Inhibition of N-terminal His6-tagged human liver PHGDH expressed in Escherichia coli Rosetta (DE3)pLysS at 57 uM using 3-phosphoglycerate as substrate after 20 mins in presence of NAD+ by resazurin fluorescence based PSAT1/diaphorase/PSPH coupled enzyme assay
metric: inhibition (%)
The reply should be a number in %, with the unit left off.

What value of inhibition has been recorded for this entry: Cc1cc(C)nc(NC(=S)N2CCN(c3ccccc3C(F)(F)F)CC2)c1
101

What value of inhibition has been recorded for this entry: Cc1cc(C)nc(NC(=S)N2CCN(CCc3ccc(C(F)(F)F)cc3)CC2)c1
87

What value of inhibition has been recorded for this entry: Cc1cc(C)nc(NC(=S)N2CCCN(Cc3ccc(C(F)(F)F)cc3)CC2)c1
82

What value of inhibition has been recorded for this entry: Cc1cc(C)nc(NC(=S)N2CCC(NC(=O)c3ccc(C(F)(F)F)cc3)CC2)c1
90

What value of inhibition has been recorded for this entry: Cc1cc(C)nc(NC(=S)N2CCN(Cc3ccccc3)CC2)c1
78

What value of inhibition has been recorded for this entry: Cc1ccc(CN2CCN(C(=S)Nc3cc(C)cc(C)n3)CC2)cc1
93

What value of inhibition has been recorded for this entry: Cc1cc(C)nc(NC(=S)N2CCN(Cc3cccc(Cl)c3)CC2)c1
90

What value of inhibition has been recorded for this entry: COc1cccc(CN2CCN(C(=S)Nc3cc(C)cc(C)n3)CC2)c1
94

What value of inhibition has been recorded for this entry: Cc1cc(C)nc(NC(=S)N2CCN(Cc3ccc(C(F)(F)F)cc3)[C@H](C)C2)c1
94

What value of inhibition has been recorded for this entry: Cc1cc(C)nc(NC(=S)N2CCCC(NCc3ccc(C(F)(F)F)cc3)C2)c1 (stereo not given)
89
